# Test system: MER/AXL
# method-summary: Dual MER/AXL inhibition (enzymatic)
# Format: biochemical
# conditions: class for both MER and AXL
pIC50: −log10 of the molar value.
value-kind: pIC50

Consider the following illustrative entries.
>  <structure-notation>
Cn1cc(-c2oc3ncnc(Oc4ccc(NC(=O)c5cc(-c6ccc(F)cc6)on5)cc4)c3c2-c2cccc(N)c2)cn1

>  <val>
4.30 to 7.00

$$$$
>  <structure-notation>
CC(=O)Nc1cccc(-c2n[nH]c3ncnc(Oc4ccc(NC(=O)c5cccn(-c6ccc(F)cc6)c5=O)cc4)c23)c1

>  <val>
4.30 to 7.00

$$$$

Your task in this section: give pIC50 for each listed record.
1. CC(=O)Nc1cccc(-c2c(-c3cnn(C)c3)oc3ncnc(Oc4ccc(NC(=O)c5c(C)n(C)n(-c6ccc(F)cc6)c5=O)cc4)c23)c1
2. CC(=O)Nc1cccc(-c2coc3ncnc(Oc4ccc(NC(=O)c5cccn(-c6ccc(F)cc6)c5=O)cc4)c23)c1
3. Cn1cc(-c2oc3ncnc(Oc4ccc(NC(=O)c5cccn(-c6ccc(F)cc6)c5=O)nc4)c3c2-c2cccc(N)c2)cn1

// result
1. 4.30 to 7.00
2. 4.30 to 7.00
3. 7.00 to 7.70
